Origin of measurements: patent US8969325B2

target-under-test: human TRPV1 (Homo sapiens (Human), UniProt Q8NER1)
Sequence (Q8NER1 whole entry): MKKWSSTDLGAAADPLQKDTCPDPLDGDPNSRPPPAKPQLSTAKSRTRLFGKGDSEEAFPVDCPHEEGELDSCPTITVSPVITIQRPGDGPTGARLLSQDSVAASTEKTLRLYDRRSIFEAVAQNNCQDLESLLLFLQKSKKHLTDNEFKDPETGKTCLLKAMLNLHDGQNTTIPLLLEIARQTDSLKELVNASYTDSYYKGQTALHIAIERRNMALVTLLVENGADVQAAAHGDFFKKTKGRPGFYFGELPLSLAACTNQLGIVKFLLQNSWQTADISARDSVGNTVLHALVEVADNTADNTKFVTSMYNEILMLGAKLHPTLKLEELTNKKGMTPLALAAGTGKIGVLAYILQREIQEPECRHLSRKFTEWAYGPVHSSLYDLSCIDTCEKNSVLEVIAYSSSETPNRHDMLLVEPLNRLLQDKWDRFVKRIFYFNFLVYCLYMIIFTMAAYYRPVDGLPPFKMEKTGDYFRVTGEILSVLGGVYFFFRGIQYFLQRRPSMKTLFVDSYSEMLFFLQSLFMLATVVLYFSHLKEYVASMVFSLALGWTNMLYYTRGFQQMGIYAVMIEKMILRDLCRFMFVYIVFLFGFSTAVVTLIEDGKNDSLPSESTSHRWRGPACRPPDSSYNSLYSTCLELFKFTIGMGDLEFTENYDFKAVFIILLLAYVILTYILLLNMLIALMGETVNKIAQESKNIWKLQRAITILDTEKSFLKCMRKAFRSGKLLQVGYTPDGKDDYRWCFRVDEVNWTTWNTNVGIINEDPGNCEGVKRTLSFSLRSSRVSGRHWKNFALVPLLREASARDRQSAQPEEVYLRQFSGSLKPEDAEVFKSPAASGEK
assay-info: Capsaicin Activation Assay (intracellular Ca2+, FLIPR)
settings: recombinant HEK293 cells expressing hTRPV1, 50 nM capsaicin
pIC50: −log10 of the molar value.
# pIC50 >= 7 gives Fulfilled, anything below gives Not fulfilled

Kindly determine if pIC50 recorded for C[C@]1(CF)C[C@@H](NC(=O)Nc2ccc3c(c2)NC(=O)CO3)c2ccc(C(F)(F)F)cc2O1 is above or exactly 7.
Fulfilled

Hello, I need to know if O=C1CCc2ccc(NC(=O)N[C@@H]3CC(CF)(CF)Oc4cc(OC(F)(F)F)ccc43)cc2N1 has measured pIC50 not below 7. Thanks!
Fulfilled

Quick check, pIC50 >= 7? CC1(C)C[C@@H](NC(=O)Nc2ccc3c(c2)NC(=O)CO3)c2ccc(F)cc2O1
Fulfilled

Answer whether pIC50 of CN1Cc2ccc(NC(=O)N[C@@H]3CCOc4cc(OC(F)(F)F)ccc43)cc2NC1=O is greater than or equal to 7.
Not fulfilled

Kindly determine if pIC50 recorded for CN1Cc2ccc(NC(=O)N[C@@H]3CC(CF)(CF)Oc4c(F)cc(F)cc43)cc2NC1=O is above or exactly 7.
Not fulfilled

# bool: pIC50 of CCCC1(CCC)C[C@@H](NC(=O)Nc2cccc3c2ccc(=O)n3C)c2cccc(F)c2O1 >= 7
Fulfilled

Check the entry CN1Cc2ccc(NC(=O)N[C@H]3CC4(CCC4)Oc4ccc(F)cc43)cc2NC1=O : does pIC50 equal or exceed 7?
Not fulfilled

Hi team, for O=C1COc2ccc(NC(=O)N[C@@H]3CC(CF)(CF)Oc4c(F)cccc43)cc2N1 , is the recorded pIC50 at or above 7?
Not fulfilled

Does the reported pIC50 for O=C1CCc2ccc(NC(=O)N[C@@H]3CC(CF)(CF)Oc4cc(F)ccc43)cc2N1 fall at or above the 7 mark?
Fulfilled

Could you tell me if the measured pIC50 of CC1(C)C[C@@H](NC(=O)Nc2ccc3c(c2)NC(=O)N(CCO)C3)c2ccc(Cl)c(F)c2O1 reaches 7 or more?
Not fulfilled

Please indicate if the recorded pIC50 for CCC1(CC)C[C@@H](NC(=O)Nc2ccc3c(c2)NC(=O)CO3)c2ccc(Cl)cc2O1 meets or exceeds 7.
Not fulfilled

Determine whether measured pIC50 meets or exceeds 7 for CC1(C)C[C@@H](NC(=O)Nc2ccc3c(c2)NC(=O)CC3)c2cccc(F)c2O1
Fulfilled

Quick check, pIC50 >= 7? CCCC1(CCC)C[C@@H](NC(=O)Nc2ccc3c(c2)NC(=O)CC3)c2cccc(F)c2O1
Fulfilled
